# protocol text: Plasma pharmacokinetics of DEBIO1143 in patients (LC-MS/MS)
# Type: in vivo, human
# cond: human, plasma, oral, 20 mg, day 1, n=1
recorded endpoint: AUC(0-t) (ng·h/mL)
Record the value in ng·h/mL, omitting the unit from your answer.

Ask: Determine from records and report AUC(0-t) for `CN[C@@H](C)C(=O)N[C@H]1CN(C(=O)CC(C)C)CC[C@H]2CC[C@@H](C(=O)NC(c3ccccc3)c3ccccc3)N2C1=O`
Reply: 615

----------
# protocol text: Plasma pharmacokinetics of DEBIO1143 in patients (LC-MS/MS)
# Format: in vivo, human
# cond: human, plasma, oral, 20 mg, day 5, n=1
# Description: Pharmacokinetic samples were taken from all patients on day 1 (predose, 0.5, 1, 2, 3, 4, 6, 8, 12, 18 h postdose) and on day 5 (predose, 0.5, 1, 2, 3, 4, 6, 8 h postdose) of the first cycle. […] C max and t max were determined by direct assessment of the observed concentration versus time curves. […] For the detection of cIAP-1 in paraffin-embedded human tissue, a validated immunohistochemical (IHC) assay was used. […] Plasma biomarkers were measured through commercial ELISAs. […]
recorded endpoint: Cmax
Provide the measurement as a number trailed by its unit.

Ask: Determine from records and report Cmax for `CN[C@@H](C)C(=O)N[C@H]1CN(C(=O)CC(C)C)CC[C@H]2CC[C@@H](C(=O)NC(c3ccccc3)c3ccccc3)N2C1=O`
Reply: 134 ng/mL
